Target: cyclo-oxygenase (Bos taurus, UniProt O62664)
Construct: a cyclo-oxygenase contained in a microsomal preparation of seminal vesicules of bulls; from tissue; host or cells: bull seminal vesicles, microsomal preparation
Sequence (O62664 25-600): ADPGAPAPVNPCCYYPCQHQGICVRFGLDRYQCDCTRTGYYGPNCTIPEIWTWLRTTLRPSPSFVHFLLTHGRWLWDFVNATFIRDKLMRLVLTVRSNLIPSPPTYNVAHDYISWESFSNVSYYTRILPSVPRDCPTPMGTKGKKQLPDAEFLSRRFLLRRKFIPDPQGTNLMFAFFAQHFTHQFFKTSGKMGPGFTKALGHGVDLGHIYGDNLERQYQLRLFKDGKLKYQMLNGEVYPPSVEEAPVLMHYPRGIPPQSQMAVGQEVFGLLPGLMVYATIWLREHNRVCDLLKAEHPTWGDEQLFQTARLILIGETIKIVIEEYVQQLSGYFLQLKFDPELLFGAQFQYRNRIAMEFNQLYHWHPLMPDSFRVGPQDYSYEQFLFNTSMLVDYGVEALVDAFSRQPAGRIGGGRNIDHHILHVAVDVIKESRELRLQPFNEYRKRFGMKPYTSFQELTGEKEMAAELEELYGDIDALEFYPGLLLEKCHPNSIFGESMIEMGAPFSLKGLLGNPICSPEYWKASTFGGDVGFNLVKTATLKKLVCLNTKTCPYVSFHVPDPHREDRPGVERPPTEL
Assay: Inhibition of biosynthesis of prostaglandins in vitro (microsomal preparation of seminal vesicules)
Format: biochemical, bulls
Settings: table value; read-out: CI50 cyclooxygenase
reported.property: pIC50
Lab note: report pIC50 as minus log10 of the concentration in molar units, number only.

Q. Observed pIC50 on cyclo-oxygenase (Bos taurus, UniProt O62664) for CC(C(=O)N(C)O)c1cc2c(s1)C1(CCCCC1)CC2 (stereo not shown) [Example 4] , please.
A. 3.70
